- Test system: SNB-19 CNS
- assay_method_text: NCI-60 one-dose screen, 48 h (100 = growth as untreated, 0 = no growth, -100 = all killed)
- condition_parameters: 10 µM unless noted
Compounds without any hit were thinned out: in the full panel of roughly 83,000, 20% have a hit.
Assign growth to each entry below.
Give the value in % but do not write % after it.

stdin: What value of growth on SNB-19 CNS does `O=C1[C@@H]2Cc3c([nH]c4ccccc34)[C@H](c3c(Cl)cccc3Cl)N2C(=O)CN1C1CCN(CC2CCCCC2)CC1` have?
stdout: 71.5

stdin: Write down the reported growth of `CC1(C)CC[C@]2(C(=O)N3CCOCC3)CC[C@]3(C)C(=CC[C@@H]4[C@@]5(C)C/C(=C/c6ccco6)C(=O)C(C)(C)[C@@H]5CC[C@]43C)[C@@H]2C1` , test system: SNB-19 CNS.
stdout: 100

stdin: Short answer please: growth, SNB-19 CNS, entry `Nc1nc(-c2cccc([N+](=O)[O-])c2)c(N=Nc2ccc(Br)cc2)s1`
stdout: 29.9

stdin: # returns recorded growth (system: SNB-19 CNS) for `CC(C)c1ccc(NCc2cn(-c3ccc(C(=O)O)cc3)nc2-c2cc(C(F)(F)F)cc(C(F)(F)F)c2)cc1`
stdout: 83.8

stdin: Query for SNB-19 CNS: what growth does the record show for `Cc1[nH]c(C(=O)Nc2ccccc2OCc2cccc(C(=O)N3CCC[C@@H](N)C3)c2)c(Cl)c1Cl` ?
stdout: -84.4

stdin: Fill in the recorded growth for this molecule, with SNB-19 CNS as test system: `Cc1ccc(NC(=O)c2ccc(CN3CCOCC3)c(C(F)(F)F)c2)cc1Oc1ccc(-c2[nH]nc3ncnc(N)c23)cc1`
stdout: 95.5

stdin: Look up growth with SNB-19 CNS for this molecule: `NS(=O)(=O)c1ccc(-n2cc(CN3CCCCC3)nn2)cc1`
stdout: 102

stdin: Could you share what growth was measured for `Cc1cc2nc(C(Cl)Cl)nc(-c3cccs3)n2n1` , tested on SNB-19 CNS?
stdout: 21
